Source listed as patent US20240309103A1.

measuredOn: T1, hNPR1-mFc:hANP or hNPR1-hFc:hANP complex (human, UniProt P01160 124-151)
T1 construct: also called human NPR1 complexed to ANP
experimentalProtocol: SPR, mAb captured, 25C
Reported t½ is given for each of the following binders.

{"binder": "mAb22035 (antibody, human IgG4, V domains shown) VH: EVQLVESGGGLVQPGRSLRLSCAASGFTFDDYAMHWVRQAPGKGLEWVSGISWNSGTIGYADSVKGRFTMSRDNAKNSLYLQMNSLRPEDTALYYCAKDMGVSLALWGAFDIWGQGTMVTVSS VL: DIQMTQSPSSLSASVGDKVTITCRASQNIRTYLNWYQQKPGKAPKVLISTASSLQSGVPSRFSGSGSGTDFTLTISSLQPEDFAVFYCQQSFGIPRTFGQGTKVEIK", "readingUnit": "min", "t½": 148}
{"binder": "mAb25508 (antibody, human IgG4, V domains shown) VH: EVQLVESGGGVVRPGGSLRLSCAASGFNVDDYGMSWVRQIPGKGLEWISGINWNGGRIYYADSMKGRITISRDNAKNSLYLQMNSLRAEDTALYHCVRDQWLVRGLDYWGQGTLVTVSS VL: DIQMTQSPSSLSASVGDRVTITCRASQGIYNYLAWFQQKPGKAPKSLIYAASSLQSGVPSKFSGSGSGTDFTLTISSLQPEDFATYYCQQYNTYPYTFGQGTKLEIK", "readingUnit": "min", "t½": 129}
{"binder": "mAb25491 (antibody, human IgG4, V domains shown) VH: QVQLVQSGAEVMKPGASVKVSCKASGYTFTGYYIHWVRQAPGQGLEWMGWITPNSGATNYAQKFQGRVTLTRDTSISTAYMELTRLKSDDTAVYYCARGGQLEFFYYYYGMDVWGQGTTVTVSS VL: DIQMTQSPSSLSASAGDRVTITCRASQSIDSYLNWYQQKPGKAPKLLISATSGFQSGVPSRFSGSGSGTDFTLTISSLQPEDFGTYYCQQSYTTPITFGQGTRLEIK", "readingUnit": "min", "t½": 278}
